Quick reference for IC50 among some compounds
Tested on: P-Akt (S473)
Assay: Cell based AlphaLISA assay, inhibition of P-Akt (S473) (mTORC2 substrate phosphorylation) in MDA-MB-468 cells
Conditions: Homo sapiens, MDA-MB-468, 4 h, AlphaLISA, two to four hours at 37° C., read-out: pIC50 for Inhibition of mTORC1 and mTORC2 Substrate Phosphorylation, p-AKT 1/2/3 -(S473) (converted)

Reference set (4 entries):
>>> value_observed("CO[C@H]1C[C@@H]2CC[C@@H](C)[C@@](O)(O2)C(=O)C(=O)N2CCCC[C@H]2C(=O)O[C@H]([C@H](C)C[C@@H]2CC[C@H](n3cc(COC(=O)NCCOCCOCCC(=O)NCc4cnc(N5CCN(c6ncc(C(=O)NCCCCn7nc(-c8ccc9oc(N)nc9c8)c8c(N)ncnc87)cn6)CC5)nc4)nn3)[C@H](OC)C2)CC(=O)[C@H](C)/C=C(\\C)[C@@H](O)[C@@H](OC)C(=O)[C@H](C)C[C@H](C)/C=C/C=C/C=C/1C")
"3.16 to 31.6 nM"
>>> value_observed("CO[C@H]1C[C@@H]2CC[C@@H](C)[C@@](O)(O2)C(=O)C(=O)N2CCCC[C@H]2C(=O)O[C@H]([C@H](C)C[C@@H]2CC[C@H](n3nncc3-c3cccc(-c4cnc(N5CCN(S(=O)(=O)CCc6cn(CCOCCOCCOCCOCC(=O)NCCCCn7nc(-c8ccc9oc(N)nc9c8)c8c(N)ncnc87)nn6)CC5)nc4)c3)[C@H](OC)C2)CC(=O)[C@H](C)/C=C(\\C)[C@@H](O)[C@@H](OC)C(=O)[C@H](C)C[C@H](C)/C=C/C=C/C=C/1C")
"3.16 to 31.6 nM"
>>> value_observed("CO[C@H]1C[C@@H]2CC[C@@H](C)[C@@](O)(O2)C(=O)C(=O)N2CCCC[C@H]2C(=O)O[C@H]([C@H](C)C[C@@H]2CC[C@H](n3cc(COC(=O)NCCOCCOCCOCCOCCC(=O)NCCOCCOCCOCCOCCC(=O)NCCCCn4nc(-c5ccc6oc(N)nc6c5)c5c(N)ncnc54)nn3)[C@H](OC)C2)CC(=O)[C@H](C)/C=C(\\C)[C@@H](O)[C@@H](OC)C(=O)[C@H](C)C[C@H](C)/C=C/C=C/C=C/1C")
"3.16 to 31.6 nM"
>>> value_observed("CO[C@H]1C[C@@H]2CC[C@@H](C)[C@@](O)(O2)C(=O)C(=O)N2CCCC[C@H]2C(=O)O[C@H]([C@H](C)C[C@@H]2CC[C@H](n3cc(CCCC(=O)NCCOCCOCCOCCC(=O)NCCOCCOCCC(=O)NCCCCn4nc(-c5ccc6oc(N)nc6c5)c5c(N)ncnc54)nn3)[C@H](OC)C2)C[C@@H](OC)[C@H](C)/C=C(\\C)[C@@H](O)[C@@H](OC)C(=O)[C@H](C)C[C@H](C)/C=C/C=C/C=C/1C")
"> 1000 nM"

// moving on: another record for IC50
API: value(readout= IC50, system= P-Akt (S473), query= `CO[C@H]1C[C@@H]2CC[C@@H](C)[C@@](O)(O2)C(=O)C(=O)N2CCCC[C@H]2C(=O)O[C@H]([C@H](C)C[C@@H]2CC[C@H](n3cc(COC(=O)NCCOCCOCCOCCC(=O)NCCOCCOCCOCCC(=O)NCCCCn4nc(-c5ccc6oc(N)nc6c5)c5c(N)ncnc54)nn3)[C@H](OC)C2)C/C(=N/OCc2ccccc2)[C@H](C)/C=C(\C)[C@@H](O)[C@@H](OC)C(=O)[C@H](C)C[C@H](C)/C=C/C=C/C=C/1C` )
> 1000 nM

The reported measurements were obtained from patent US20230093861A1.
